system: RPMI-8226 leukemia; experiment: NCI tumour cell line growth inhibition, 48 h
Where a SMILES comes first, the peptide text is derived from it. The star is where a group is joined. Boc = CC(C)(C)OC(=O)*; OBn = c1ccc(CO*)cc1

# molecule, TGI
data = [
    ("C=C1[C@@](C)([C@@H]2CCCS2)[C@H]2C(C)=C[C@]1(C)n1c(=O)n(-c3ccccc3)c(=O)n12", "> 100 µM"),
    ("O=C(O)c1cc(=O)c2c([nH]c3ccccc32)s1", "> 100 µM"),
    ("Oc1c(Cl)cc(Cl)c2ccc(Cn3cc(-c4cc(C(F)(F)F)cc(C(F)(F)F)c4)nn3)nc12", "4.74 µM"),
    ("COC(=O)[C@@](C)(COC(=O)C(C)(C)C)NC(=O)OC(C)(C)C", "> 100 µM"),
    ("Cc1ccc(S(=O)(=O)NC(=O)NC(CCCCN=C(N)N)C(=O)O)cc1 (centres undefined)", "> 100 µM"),
    ("CC(C)CC(NC(=O)OC(C)(C)C)C(=O)NC(CC(=O)OCc1ccccc1)C(=O)OCc1ccccc1 (stereo not drawn) (Boc-Leu-Asp(OBn)-OBn; configuration not given here)", "97.3 µM"),
    ("C#CCNC(=S)N/N=C(\\C)c1ccccn1", "1.7 µM"),
    ("CCOc1ccc(/C(C=O)=C(\\Cl)c2ccc(OC)cc2)cc1", "> 100 µM"),
    ("COc1ccc2c(c1)CC[C@@H]1C2CC[C@](C)(C#N)C1CC#N (some centres undefined)", "> 100 µM"),
]

The values you see were collected from PubChem BioAssay (NCI).
